Entry source: PubChem BioAssay (NCI)

Experiment: NCI Yeast Anticancer Drug Screen. Data for the mlh1 strain (AID 171);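 also: 0% = growth of vehicle-treated control cultures of the same strain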
Details: S. cerevisiae mlh1 strain growth inhibition; at 33.0 µM
About 79,000 compounds went through this panel and 15% of them were active in at least one assay; those are over-represented in the sample as a whole. The source made the active and inactive calls. Rule as the data show it: active = growth inhibition above about 70%; inactive = the rest.
# output must be one of YES for active, NO for inactive

Worked examples, 3 compounds total:
- Compound: "CNC(=O)ON(C(C)=O)C(=O)NC"
  Answer Label: "NO"
- Compound: "O=C(O)C1C2C=CC(C2)C1c1ccccc1 (stereo not given)"
  Answer Label: "NO"
- Compound: "Cn1cc(NC(=O)c2cc(NC(=O)CN=C(N)N)cn2C)cc1C(=O)NCCC(=N)N"
  Answer Label: "YES"

Request: Recorded test outcome, item C/C(=N\O)c1ccc2ccc3ccccc3c2c1
Response: NO

Request: Record: CC1(Cl)CC(C)(/C=C/Cl)C(Cl)CC1Cl (stereo not given)
Response: NO

Request: Next entry: O=[N+]([O-])c1ccc(N2CCC(CCCC3CCN(c4ccc([N+](=O)[O-])cc4[N+](=O)[O-])CC3)CC2)c([N+](=O)[O-])c1
Response: NO

Request: Next: O=[N+]([O-])c1oc2ccc3ccccc3c2c1CCO
Response: YES

Request: Consider next the compound COc1cccc2c1C(=O)c1c(O)c3c(c(O)c1C2=O)C[C@@](O)(/C(C)=N\O)C[C@@H]3OC1CC(N)C(O)C(C)O1 (stereo not given in full) in the same way.
Response: NO

Request: Can you check CCc1cccc(C(C)C)c1NC1=C([n+]2ccc(C)cc2)C(=O)c2ccccc2C1=O next?
Response: NO

Request: Would you mind doing O=c1c2ccccc2[se]n1-c1cccnc1 as well?
Response: YES

----------
Experiment: NCI Yeast Anticancer Drug Screen. Data for the mec2-1 strain (AID 157)
Settings: S. cerevisiae mec2-1 strain, at 50.0 µM (retest, dose inferred, filed as 5.0), active compounds read high
Compounds without any hit were thinned out: in the full panel of roughly 79,000, 15% have a hit.
Please provide measured growth inhibition for the entries that follow.
Numbers only, in %.

- Chemical String: "[Ni+2].[O-][Cl+3]([O-])([O-])O.c1ccc([PH+](CC[PH+](c2ccccc2)c2ccccc2)c2ccccc2)cc1.c1ccc([PH+](CC[PH+](c2ccccc2)c2ccccc2)c2ccccc2)cc1"
  Units Of Measure: "%"
  growth inhibition: 12
- Chemical String: "C[C@]12CC[C@H](OC(=O)COc3ccc(N(CCCl)CCCl)cc3)C[C@@H]1CC[C@@H]1[C@@H]2CC[C@]2(C)NC(=O)CC[C@@H]12"
  Units Of Measure: "%"
  growth inhibition: 11

The record that follows has no growth inhibition shown yet.
Request: # get_value(readout='growth inhibition', item= C1CC[CH]([Sn]([CH]2CCCCC2)[CH]2CCCCC2)CC1.C1CC[CH]([Sn]([CH]2CCCCC2)[CH]2CCCCC2)CC1 )
Response: 34

----------
Can you tell me growth inhibition for the items I'm about to list?
Experiment: NCI Yeast Anticancer Drug Screen. Data for the CLN2oe strain (AID 163);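 also: 0% = growth of vehicle-only control cultures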
Details: S. cerevisiae CLN2oe strain, at 100.0 µM, active compounds read high
Compounds without any hit were thinned out: in the full panel of roughly 79,000, 15% have a hit.
One number for each entry, in %.

- Compound: "CC(=O)O/C(=C1\\C[C@H]2[C@@H]3CC=C4C[C@@H](OC(C)=O)CC[C@]4(C)[C@H]3CC[C@]2(C)C1=O)C(F)(F)F"
  Assay Result: 6

Would you mind listing growth inhibition for each of the following compounds?
1. C[N+](C)(C)CC1CCCC(C[N+](C)(C)C)C1=O (centres undefined)
2. CC[C@@]1(O)C(=O)OCc2c1cc1n(c2=O)Cc2cc3ccccc3nc2-1
3. O=[N+]([O-])c1ccc(-n2nc3ccc4c(no[n+]4[O-])c3[n+]2[O-])c([N+](=O)[O-])c1

Response:
[24, 91, 2]

Quick request: growth inhibition for each listed item, please.
1. CC[C@@]1(O)C(=O)OCc2c1cc1n(c2=O)Cc2cc3c(NC(=O)CN)cccc3nc2-1
2. CC1=C2C(=C[C@@](C)(CO)[C@@H]2O)C(=O)[C@](C)(O)C12CC2
3. Cn1cc(NC(=O)c2cc(NC(=O)CN=C(N)N)cn2C)cc1C(=O)NCCC(=N)N
4. Oc1cccc2cccnc12
5. CCc1cccc(C(C)C)c1NC1=C([n+]2ccc(C)cc2)C(=O)c2ccccc2C1=O

Response:
0
-5
97
92
11
